Biological target: D816V Kit (Homo sapiens, UniProt P10721, D816V)
Sequence (P10721 26-976 D816V): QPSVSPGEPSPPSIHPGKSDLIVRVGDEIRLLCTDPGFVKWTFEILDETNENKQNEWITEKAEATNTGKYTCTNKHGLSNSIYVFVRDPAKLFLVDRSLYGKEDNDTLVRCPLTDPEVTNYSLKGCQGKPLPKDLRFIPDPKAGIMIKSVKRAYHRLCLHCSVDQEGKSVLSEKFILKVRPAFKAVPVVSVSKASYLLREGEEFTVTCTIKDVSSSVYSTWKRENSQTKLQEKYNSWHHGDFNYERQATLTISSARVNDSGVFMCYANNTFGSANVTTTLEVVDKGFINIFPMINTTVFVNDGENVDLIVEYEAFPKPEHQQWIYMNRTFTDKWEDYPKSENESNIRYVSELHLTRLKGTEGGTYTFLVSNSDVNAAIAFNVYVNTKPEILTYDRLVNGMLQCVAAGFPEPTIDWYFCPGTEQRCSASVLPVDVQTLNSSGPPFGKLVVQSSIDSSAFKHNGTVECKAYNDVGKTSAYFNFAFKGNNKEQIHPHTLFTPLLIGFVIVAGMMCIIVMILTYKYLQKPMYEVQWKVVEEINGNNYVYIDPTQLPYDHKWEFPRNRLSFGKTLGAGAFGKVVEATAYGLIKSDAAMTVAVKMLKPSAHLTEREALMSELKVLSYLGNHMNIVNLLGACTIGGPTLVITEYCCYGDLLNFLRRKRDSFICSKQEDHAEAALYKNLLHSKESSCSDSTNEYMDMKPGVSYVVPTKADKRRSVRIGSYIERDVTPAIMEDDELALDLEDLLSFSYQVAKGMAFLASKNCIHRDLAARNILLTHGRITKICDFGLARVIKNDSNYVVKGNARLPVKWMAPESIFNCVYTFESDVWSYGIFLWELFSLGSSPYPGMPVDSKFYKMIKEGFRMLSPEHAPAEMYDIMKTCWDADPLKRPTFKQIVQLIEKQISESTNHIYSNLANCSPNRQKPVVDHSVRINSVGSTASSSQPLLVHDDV
Assay: Kit D816V assay at Km (Caliper electrophoretic mobility shift)
Conditions: 15 uM ATP, 25 C, 90 minutes
Text: In order to assess the activity of chemical compounds against the relevant kinase of interest, the Caliper LifeSciences electrophoretic mobility shift technology platform is used. […] At the end of the reaction, the mix of phosphorylated (product) and non-phosphorylated (substrate) peptides are passed through the microfluidic system of the Caliper EZ Reader 2, under an applied potential difference. […] As the pools pass a LEDS within the instrument, these pools are detected and resolved as separate peaks. […]
pIC50: −log10 of the molar value.
parameterMeasured: pIC50

molecule | targetOrSystem | reported
CNCCn1cc(Nc2ncnc(N3CCN(c4ncc(Cc5ccccc5)cn4)CC3)n2)cn1 | D816V Kit (Homo sapiens, UniProt P10721, D816V) | > 9.00
C[C@](N)(c1ccc(F)cc1)c1cnc(N2CCN(c3ncnc(Nc4ccc(N5CCC[C@H](O)C5)cc4)n3)CC2)nc1 | D816V Kit (Homo sapiens, UniProt P10721, D816V) | > 9.00
c1ccc(Cc2cnc(N3CCN(c4ncnc(Nc5cc[nH]n5)n4)CC3)nc2)cc1 | D816V Kit (Homo sapiens, UniProt P10721, D816V) | 8.00 to 9.00
Cc1c(Nc2ncnc(N3CCN(c4ncc(Sc5ccccc5F)cn4)[C@H](C)C3)n2)cnn1C[C@H](O)CO | D816V Kit (Homo sapiens, UniProt P10721, D816V) | 8.00 to 9.00
C[C@@H]1CN(c2ncnc(Nc3cnn(C[C@@H]4CNCCO4)c3)n2)CCN1c1ncc(Cc2ccccc2)cn1 | D816V Kit (Homo sapiens, UniProt P10721, D816V) | 8.00 to 9.00
OC[C@H](O)c1ccc(Nc2ncnc(N3CCN(c4ncc(Cc5ccccc5)cn4)CC3)n2)cc1 (single isomer, unassigned) | D816V Kit (Homo sapiens, UniProt P10721, D816V) | > 9.00
Cc1c(Nc2ncnc(N3CCN(c4ncc(Cc5ccccc5)cn4)[C@H](C)C3)n2)cnn1C[C@@H]1CNCCO1 | D816V Kit (Homo sapiens, UniProt P10721, D816V) | > 9.00

---

pIC50: −log10 of the molar value.
Each entry below carries its measured pIC50, system: wild type Kit (Homo sapiens).
Sequence (P10721 26-976): as the sequence (P10721 26-976 D816V) above, with V791D counted along it

molecule | targetOrSystem | pIC50
NC(=O)c1cccc(Nc2ncnc(N3CCN(c4ncc(Cc5ccccc5)cn4)CC3)n2)c1 | wild type Kit (Homo sapiens) | 7.00 to 7.96
c1ccc(Cc2cnc(N3CCN(c4ncnc(Nc5cnn(CC6CNC6)c5)n4)CC3)nc2)cc1 | wild type Kit (Homo sapiens) | 7.00 to 7.96
COCCN1CCc2ccc(Nc3ncnc(N4CCN(c5ncc(Cc6ccccc6)cn5)CC4)n3)cc2C1 | wild type Kit (Homo sapiens) | > 8.00
O[C@H]1CCCN(c2ccc(Nc3ncnc(N4CCN(c5ncc(Cc6ccccc6)cn5)CC4)n3)cc2)C1 | wild type Kit (Homo sapiens) | 7.00 to 7.96
CNC(C)c1cccc(Nc2ncnc(N3CCN(c4ncc(Cc5ccccc5)cn4)CC3)n2)c1 (stereo not shown) | wild type Kit (Homo sapiens) | > 8.00
c1ccc(Cc2cnc(N3CCN(c4ncnc(Nc5ccc6c(c5)CNCC6)n4)CC3)nc2)nc1 | wild type Kit (Homo sapiens) | 7.00 to 7.96
c1ccc(Cc2cnc(N3CCN(c4ncnc(Nc5cnn(C[C@H]6CCCN6)c5)n4)CC3)nc2)cc1 | wild type Kit (Homo sapiens) | > 8.00

---

Target: Kit D816V (HMC1.2 cells, Kit V560G and D816V) (Homo sapiens, UniProt P10721, D816V/V560G)
Construct: endogenous in cells
Sequence (P10721 26-976 V560G/D816V): as the sequence (P10721 26-976 D816V) above, with V535G counted along it
Test: HMC1.2 autophosphorylation assay (AlphaLISA, phospho-Y719 c-Kit)
Settings: Kit autophosphorylation at tyrosine 719, 90 minutes, read-out: Cellular Activity
Description: HMC1.2 Autophosphorylation Assay: 10,000 HMC1.2 cells were incubated in 22 ul culture media (phenol-red free IMDM, no serum) in each well of a 384-well plate and serum starved overnight in a tissue culture incubator (5% CO2, 37° C.). A 10-point dose concentration series of compound (25 uM-95.4 pM) were then added to the cells in a volume of 3.1 ul to each well (0.25% DMSO final concentration). […] Fluorescence signal was obtained on Envision (Perkin Elmer) by AlphaScreen 384 well HTS protocol. […]
pIC50: −log10 of the molar value.

compound | pIC50
CC(C)(O)[C@H](O)c1ccc(Nc2ncnc(N3CCN(c4ncc(Cc5ccccc5)cn4)CC3)n2)cc1 [Compound 121] | 7.00 to 8.00
C[C@H](O)Cn1cc(Nc2ncnc(N3CCN(c4ncc(Sc5ccc(F)cc5)cn4)CC3)n2)cn1 [Compound 101] | > 8.00
CC(C)(c1ccc(F)cc1)c1cnc(N2CCN(c3ncnc(Nc4cnn(C[C@@H]5CNCCO5)c4)n3)CC2)nc1 [Compound 267] | 7.00 to 8.00
c1ccc(Cc2cnc(N3CCN(c4ncnc(Nc5ccc6c(c5)NCCC6)n4)CC3)nc2)cc1 [Compound 42] | 7.00 to 8.00
Fc1cc(N2CCNCC2)ccc1Nc1ncnc(N2CCN(c3ncc(Cc4ccccc4)cn3)CC2)n1 [Compound 175] | 5.00 to 6.00
Cn1cc(Nc2ncnc(N3CCN(c4ncc([C@@](C)(N)c5ccc(F)cc5)cn4)CC3)n2)cn1 [Compound 36] | > 8.00
OCc1cccc(Nc2ncnc(N3CCN(c4ncc(Cc5ccccc5)cn4)CC3)n2)c1 [Compound 15] | 7.00 to 8.00
Fc1ccc(OCc2cnc(N3CCN(c4ncnc(Nc5cnn(C[C@@H]6CNCCO6)c5)n4)CC3)nc2)cc1 [Compound 253] | 7.00 to 8.00
OC1CCC(NCc2cccc(Nc3ncnc(N4CCN(c5ncc(Cc6ccccc6)cn5)CC4)n3)c2)C1 (stereo not shown) [Compound 214] | 7.00 to 8.00
c1ccc(Cc2cnc(N3CCN(c4ncnc(Nc5cnn(CC6CCOCC6)c5)n4)CC3)nc2)cc1 [Compound 118] | 7.00 to 8.00
Nc1nc(N2CCN(c3ncnc(Nc4cnc5c(c4)CNCC5)n3)CC2)ncc1Cc1ccccc1 [Compound 78] | 7.00 to 8.00
CC(C)(c1ccccc1)c1cnc(N2CCN(c3ncnc(Nc4ccc([C@@H](O)CO)cc4)n3)CC2)nc1 [Compound 120] | 7.00 to 8.00
C[C@@H]1CN(c2ncnc(Nc3cnn(C[C@@H]4CNCCO4)c3)n2)CCN1c1ncc(Cc2ccccc2)cn1 [Compound 183] | 7.00 to 8.00
Cc1c(Nc2ncnc(N3CCN(c4ncc(Sc5ccc(F)cc5)cn4)CC3)n2)cnn1C[C@@H]1CNCCO1 [Compound 273] | 7.00 to 8.00
OCCC1CN(c2ncnc(Nc3ccc4c(c3)CNCC4)n2)CCN1c1ncc(Cc2ccccc2)cn1 (stereo not shown) [Compound 164] | > 8.00
OC[C@H]1CCCN1c1ccc(Nc2ncnc(N3CCN(c4ncc(Cc5ccccc5)cn4)CC3)n2)cc1 [Compound 167] | 7.00 to 8.00

---

Parameter: IC50. Scope: all listed entries.
molecular target: Kit D816V (HMC1.2 cells, Kit V560G and D816V) (Homo sapiens, UniProt P10721, D816V/V560G); construct: endogenous in cells; assay: HMC1.2 autophosphorylation assay (AlphaLISA, phospho-Y719 c-Kit); settings: Kit autophosphorylation at tyrosine 719, 90 minutes, read-out: Cellular Activity
parameterMeasured: IC50

testSmiles | reported
Oc1ccccc1Cc1cnc(N2CCN(c3ncnc(Nc4ccc5c(c4)CNCC5)n3)CC2)nc1 | 10 to 100 nM
c1ccc(Cc2cnc(N3CCN(c4ncnc(Nc5ccc(O[C@@H]6CCNC6)cc5)n4)CC3)nc2)cc1 | 10 to 100 nM
C[C@@](O)(c1ccccc1)c1cnc(N2CCN(c3ncnc(Nc4ccc(N5CCOCC5)cc4)n3)CC2)nc1 | 10 to 100 nM
O[C@H]1CCCN(c2ccc(Nc3ncnc(N4CCN(c5ncc(Cc6ccccc6)cn5)CC4)n3)cc2)C1 | < 10 nM
C[C@H](c1ccccc1)c1cnc(N2CCN(c3ncnc(Nc4ccc(N5CCC[C@@H](O)C5)cc4)n3)CC2)nc1 | 10 to 100 nM
FC1(Cn2cc(Nc3ncnc(N4CCN(c5ncc(Cc6ccccc6)cn5)CC4)n3)cn2)CCNCC1 | < 10 nM
CN(C)S(=O)(=O)Cc1ccc(Nc2ncnc(N3CCN(c4ncc(Cc5ccccc5)cn4)CC3)n2)cc1 | 10 to 100 nM
